# tgt: T1, human plasma Kallikrein (human, UniProt P03952 20-638, limits assumed)
# T1 construct: also called hPK; human PK
# procedure.summary: enzyme inhibition assay
pKi: −log10 of the molar value. Numbered stars: 1 amine (or outer) side, 2 acyl side, 3 side chain; on linkers, the order of the positions; unused ones are H or OH. Bridge positions count the residues as written; N and C are the ends. Square brackets hold non-standard residues; d marks the D form. Ind = L-indoline-2-carboxylic acid, O=C([C@@H]1Cc2ccccc2N1[*:1])[*:2]; TBMB = c1c(C[*:1])cc(C[*:3])cc1C[*:2]; 4FluoPro = 4-fluoroproline
Listing of entries alongside the reported pKi.

- binder: "Ac-CSW[Ind]ARCLHQDLC-NH2 (linker 1-7-13 via TBMB; SMILES CC(=O)N[C@H]1CSCc2cc3cc(c2)CSC[C@H](NC(=O)[C@H](CCCNC(=N)N)NC(=O)[C@H](C)NC(=O)[C@@H]2Cc4ccccc4N2C(=O)[C@H](Cc2c[nH]c4ccccc24)NC(=O)[C@H](CO)NC1=O)C(=O)N[C@@H](CC(C)C)C(=O)N[C@@H](Cc1c[nH]cn1)C(=O)N[C@@H](CCC(N)=O)C(=O)N[C@@H](CC(=O)O)C(=O)N[C@@H](CC(C)C)C(=O)N[C@H](C(N)=O)CSC3) [Ac-(06-34-18) Ind3]"
  pKi: 8.87
- binder: "Ac-CSW[4FluoPro]ARCLHQDLC-NH2 (linker 1-7-13 via TBMB) [Ac-(06-34-18) 4FluoPro3]"
  pKi: 9.62
